Biological target: recombinant ISP1 (Mus musculus)
Construct: Myc (C); His6 (C); made in house; host or cells: Pichia pastoris SMD1168
Experiment: Chromogenic substrate kinetics of recombinant ISP1
Assay type: biochemical
Conditions: substrate of recombinant ISP1; 25 mM Tris.Cl pH 8.0, room temperature; [E] 6.5 uM
Non-standard residues stand in square brackets, D forms with d. Residues, ends and D or L forms follow the SMILES beside them. *: point of attachment. pNA = O=[N+]([O-])c1ccc(N*)cc1; Tos = Cc1ccc(S(=O)(=O)*)cc1; Bz = O=C(c1ccccc1)*
RECORDED ENDPOINT: Turnover No. (kcat)

Worked examples follow.
{"columns": ["COMPOUND", "Turnover No. (kcat)"],
 "data": [
  ["CC(=O)O.Cc1ccc(S(=O)(=O)NCC(=O)N2CCC[C@H]2C(=O)N[C@@H](CCCCN)C(=O)Nc2ccc([N+](=O)[O-])cc2)cc1 (Tos-Gly-Pro-Lys-pNA)", "Nil"],
  ["C[C@H](NC(=O)CCC(=O)O)C(=O)N[C@@H](C)C(=O)N[C@@H](C)C(=O)Nc1ccc([N+](=O)[O-])cc1", "Nil"],
  ["CC(C)C[C@H](NC(=O)[C@H](N)C(C)C)C(=O)N[C@@H](CCCCN)C(=O)Nc1ccc([N+](=O)[O-])cc1.Cl [Valine-Leucine-Lysinep-nitroanilide] (H-[dV]-Leu-Lys-pNA)", "Nil"],
  ["CC(C)[C@H](NC(=O)[C@H](Cc1ccccc1)NC(=O)c1ccccc1)C(=O)N[C@@H](CCCNC(=N)N)C(=O)Nc1ccc([N+](=O)[O-])cc1.Cl (Bz-Phe-Val-Arg-pNA)", "0.14 s⁻¹"]
]}

Which Turnover No. (kcat) value belongs to CC(C)[C@H](N)C(=O)N[C@@H](Cc1ccccc1)C(=O)N[C@@H](CCCCN)C(=O)Nc1ccc([N+](=O)[O-])cc1 (H-Val-Phe-Lys-pNA) ?
Nil

----------
Biological target: recombinant ISP1 (Mus musculus)
Construct: Myc (C); His6 (C); made in house; host or cells: Pichia pastoris SMD1168
Sequence (Q924N9 31-274 limits assumed): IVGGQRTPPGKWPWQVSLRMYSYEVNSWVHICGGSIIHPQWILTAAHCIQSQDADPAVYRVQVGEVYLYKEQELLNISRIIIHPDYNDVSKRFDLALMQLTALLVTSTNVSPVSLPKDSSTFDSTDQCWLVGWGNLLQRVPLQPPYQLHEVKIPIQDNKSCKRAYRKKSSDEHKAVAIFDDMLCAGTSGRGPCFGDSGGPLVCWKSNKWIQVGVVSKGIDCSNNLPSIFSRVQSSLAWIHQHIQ
Test: Chromogenic substrate kinetics of recombinant ISP1
Assay type: biochemical
Settings: result in words
Non-standard residues stand in square brackets, D forms with d. Residues, ends and D or L forms follow the SMILES beside them. *: point of attachment. pNA = O=[N+]([O-])c1ccc(N*)cc1; Tos = Cc1ccc(S(=O)(=O)*)cc1; Bz = O=C(c1ccccc1)*
RECORDED ENDPOINT: Hydrolysis of chromogenic substrate by rISP1

Worked examples follow.
{"columns": ["COMPOUND", "VALUE"],
 "data": [
  ["CC(C)[C@H](N)C(=O)N[C@@H](Cc1ccccc1)C(=O)N[C@@H](CCCCN)C(=O)Nc1ccc([N+](=O)[O-])cc1 (H-Val-Phe-Lys-pNA)", "no enzyme activity"],
  ["CC(=O)O.Cc1ccc(S(=O)(=O)NCC(=O)N2CCC[C@H]2C(=O)N[C@@H](CCCCN)C(=O)Nc2ccc([N+](=O)[O-])cc2)cc1 (Tos-Gly-Pro-Lys-pNA)", "no enzyme activity"],
  ["CC[C@H](C)[C@H](NC(=O)c1ccccc1)C(=O)N[C@@H](Cc1ccccc1)C(=O)N[C@@H](CCCCN)C(=O)Nc1ccc([N+](=O)[O-])cc1.Cl (Bz-Ile-Phe-Lys-pNA)", "hydrolyzed"],
  ["C[C@H](N)C(=O)Nc1ccc([N+](=O)[O-])cc1 [Alanine p-nitroanilide]", "no reaction"],
  ["CC(C)[C@H](NC(=O)[C@H](Cc1ccccc1)NC(=O)c1ccccc1)C(=O)N[C@@H](CCCNC(=N)N)C(=O)Nc1ccc([N+](=O)[O-])cc1.Cl (Bz-Phe-Val-Arg-pNA)", "hydrolyzed"]
]}

Which Hydrolysis of chromogenic substrate by rISP1 value belongs to Cl.N=C(N)NCCC[C@H](NC(=O)c1ccccc1)C(=O)Nc1ccc([N+](=O)[O-])cc1 [N-Benzoyl Argininep-nitroanilide (BAPNA)] ?
hydrolyzed

Which Hydrolysis of chromogenic substrate by rISP1 value belongs to "C[C@H](NC(=O)CCC(=O)O)C(=O)N[C@@H](C)C(=O)N[C@@H](C)C(=O)Nc1ccc([N+](=O)[O-])cc1" ?
no reaction

Which Hydrolysis of chromogenic substrate by rISP1 value belongs to CC(C)C[C@H](NC(=O)[C@H](N)C(C)C)C(=O)N[C@@H](CCCCN)C(=O)Nc1ccc([N+](=O)[O-])cc1.Cl [Valine-Leucine-Lysinep-nitroanilide] (H-[dV]-Leu-Lys-pNA) ?
no enzyme activity

----------
Molecular target: purified recombinant ISP1 (Mus musculus, UniProt Q924N9)
Construct: Myc (C); His6 (C); made in house; host or cells: Pichia pastoris SMD1168
Sequence (Q924N9 31-274 limits assumed): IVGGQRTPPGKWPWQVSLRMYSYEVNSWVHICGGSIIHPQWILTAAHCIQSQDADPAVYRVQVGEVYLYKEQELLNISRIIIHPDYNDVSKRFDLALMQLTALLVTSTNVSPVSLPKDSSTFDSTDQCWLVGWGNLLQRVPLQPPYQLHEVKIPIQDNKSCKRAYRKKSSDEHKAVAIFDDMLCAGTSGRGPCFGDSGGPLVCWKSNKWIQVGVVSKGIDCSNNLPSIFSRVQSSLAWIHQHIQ
Assay: In vitro cleavage of synthetic peptides by ISP1 (HPLC, MALDI-TOF)
Format: biochemical
Conditions: 37°C, up to overnight; HPLC
No end group written: not given here.

{"columns": ["SUBSTANCE", "Cleavage of synthetic peptide by ISP1"],
 "data": [
  ["ITGKGAPVEPGFSVDEFSASVLTGKLT-NH2 [27 mer peptide]", "successfully cleaved"],
  ["VLPEEVLVGDMFSYFLS [17-mer synthetic peptide, derived from the extracellular loop 2 domain of rat PAR2]", "successfully cleaved"]
]}

----------
Could you please report measured Ki for the items listed next?
Molecular target: recombinant ISP1 (Mus musculus)
Construct: Myc (C); His6 (C); made in house; host or cells: Pichia pastoris SMD1168
Sequence (Q924N9 31-274 limits assumed): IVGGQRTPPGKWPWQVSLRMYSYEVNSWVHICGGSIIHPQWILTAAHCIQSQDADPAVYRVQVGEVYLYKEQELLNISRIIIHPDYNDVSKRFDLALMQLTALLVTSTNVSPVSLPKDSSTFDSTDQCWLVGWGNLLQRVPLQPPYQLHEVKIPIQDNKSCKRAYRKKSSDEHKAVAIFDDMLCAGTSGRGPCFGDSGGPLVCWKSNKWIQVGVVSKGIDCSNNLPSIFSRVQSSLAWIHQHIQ
Assay: Inhibition of recombinant ISP1 by general serine proteinase inhibitors
Assay type: biochemical
Settings: substrate BAPNA (2 mM); read-out: Ki (Apparent Ki)
Report the value in µM with no unit label.

Reported Ki for recombinant ISP1 (Mus musculus), given CCOC(=O)c1ccc(OC(=O)CCCCCN=C(N)N)cc1.CS(=O)(=O)O [Gabexate mesylate] ?
1700

Reported Ki for recombinant ISP1 (Mus musculus), given "CC(C)C[C@H](NC(=O)[C@@H](NC(=O)N[C@@H](Cc1ccccc1)C(=O)O)[C@@H]1CCN=C(N)N1)C(=O)N[C@H](C=O)Cc1ccccc1" ?
220

----------
Could you please report measured Turnover No. (kcat) for the items listed next?
Target: recombinant ISP1 (Mus musculus, UniProt Q924N9)
Construct: Myc (C); His6 (C); made in house; host or cells: Pichia pastoris SMD1168
Assay: Chromogenic substrate kinetics of recombinant ISP1
Format: biochemical
Conditions: substrate of recombinant ISP1; 25 mM Tris.Cl pH 8.0, room temperature; [E] 6.5 uM
Residues, ends and D or L forms follow the SMILES beside them. *: point of attachment. pNA = O=[N+]([O-])c1ccc(N*)cc1; Bz = O=C(c1ccccc1)*
Report the value in s⁻¹ with no unit label.

Which Turnover No. (kcat) value belongs to CC[C@H](C)[C@H](NC(=O)c1ccccc1)C(=O)N[C@@H](Cc1ccccc1)C(=O)N[C@@H](CCCCN)C(=O)Nc1ccc([N+](=O)[O-])cc1.Cl (Bz-Ile-Phe-Lys-pNA) ?
3.9

Which Turnover No. (kcat) value belongs to Cl.N=C(N)NCCC[C@H](NC(=O)c1ccccc1)C(=O)Nc1ccc([N+](=O)[O-])cc1 [N-Benzoyl Argininep-nitroanilide (BAPNA)] ?
2.2
